- system: TANK-2 enzyme (Homo sapiens)
- Construct: made in house
- test: In vitro scintillation proximity assay (SPA) for TANK-2 inhibitory activity
- Assay type: biochemical
- experimental conditions: auto-poly(ADP-ribosyl)ation, Ni flash plates; 96-well results if available, otherwise 384-well; tested between 10^-5 M and 3x10^-8 M; read-out: in vitro SPA assay TANK-2 pIC50 (converted)

compound: CCc1cc2ccc(C(CO)N3CCOCC3)cc2[nH]c1=O (stereo not drawn)
system: TANK-2 enzyme (Homo sapiens)
value unit: nM
bound operator: =
IC50: 1440
--
compound: CCc1cc2ccc(CNCc3ccc(F)cc3)cc2[nH]c1=O
system: TANK-2 enzyme (Homo sapiens)
value unit: nM
bound operator: =
IC50: 254
--
compound: Cc1cc2ccc(CN3CCC(c4ccccc4)CC3)cc2[nH]c1=O
system: TANK-2 enzyme (Homo sapiens)
value unit: nM
bound operator: >
IC50: 10000
--
compound: Cc1cc2ccc(C(C)N3CC=C(c4ccccc4)CC3)cc2[nH]c1=O (stereo not drawn)
system: TANK-2 enzyme (Homo sapiens)
value unit: nM
bound operator: =
IC50: 1280
--
compound: CCc1cc2ccc(CN(C)CCOC)cc2[nH]c1=O
system: TANK-2 enzyme (Homo sapiens)
value unit: nM
bound operator: =
IC50: 867
--
compound: CCc1cc2ccc(CNCC3CCN(c4ncccn4)CC3)cc2[nH]c1=O
system: TANK-2 enzyme (Homo sapiens)
value unit: nM
bound operator: =
IC50: 1100
--
compound: Cc1cc2ccc(C(C3CCCCC3)N3CCN(c4ccc(C#N)cn4)CC3)cc2[nH]c1=O (stereo not drawn)
system: TANK-2 enzyme (Homo sapiens)
value unit: nM
bound operator: =
IC50: 1910
--
compound: CCc1cc2ccc(CNC3CCN(c4ncccn4)CC3)cc2[nH]c1=O
system: TANK-2 enzyme (Homo sapiens)
value unit: nM
bound operator: =
IC50: 2150
--
compound: Cc1cc2ccc(C(=O)N3CC=C(c4ccccc4)CC3)cc2[nH]c1=O
system: TANK-2 enzyme (Homo sapiens)
value unit: nM
bound operator: =
IC50: 818

###

quantity measured: melting point (°C)

compound: CCOC(=O)c1cnc(N2CCN(Cc3ccc4cc(CC)c(=O)[nH]c4c3)CC2)nc1
quantity measured: melting point
value unit: °C
reading: 235
//
compound: CCc1cc2ccc(C(CO)N3CCC(Cc4ccccc4)CC3)cc2[nH]c1=O (stereo not shown)
quantity measured: melting point
value unit: °C
reading: 172
//
compound: CCc1cc2c(OC)cc(CN3CCN(c4ccccc4OC)CC3)cc2[nH]c1=O
quantity measured: melting point
value unit: °C
reading: 80
//
compound: CCc1cc2ccc(C(C)NCCc3c[nH]c4ccccc34)cc2[nH]c1=O (stereo not shown)
quantity measured: melting point
value unit: °C
reading: 170

###

- system: TANK-2 enzyme (Homo sapiens, UniProt Q9H2K2)
- Construct: made in house
- Sequence (Q9H2K2 whole entry): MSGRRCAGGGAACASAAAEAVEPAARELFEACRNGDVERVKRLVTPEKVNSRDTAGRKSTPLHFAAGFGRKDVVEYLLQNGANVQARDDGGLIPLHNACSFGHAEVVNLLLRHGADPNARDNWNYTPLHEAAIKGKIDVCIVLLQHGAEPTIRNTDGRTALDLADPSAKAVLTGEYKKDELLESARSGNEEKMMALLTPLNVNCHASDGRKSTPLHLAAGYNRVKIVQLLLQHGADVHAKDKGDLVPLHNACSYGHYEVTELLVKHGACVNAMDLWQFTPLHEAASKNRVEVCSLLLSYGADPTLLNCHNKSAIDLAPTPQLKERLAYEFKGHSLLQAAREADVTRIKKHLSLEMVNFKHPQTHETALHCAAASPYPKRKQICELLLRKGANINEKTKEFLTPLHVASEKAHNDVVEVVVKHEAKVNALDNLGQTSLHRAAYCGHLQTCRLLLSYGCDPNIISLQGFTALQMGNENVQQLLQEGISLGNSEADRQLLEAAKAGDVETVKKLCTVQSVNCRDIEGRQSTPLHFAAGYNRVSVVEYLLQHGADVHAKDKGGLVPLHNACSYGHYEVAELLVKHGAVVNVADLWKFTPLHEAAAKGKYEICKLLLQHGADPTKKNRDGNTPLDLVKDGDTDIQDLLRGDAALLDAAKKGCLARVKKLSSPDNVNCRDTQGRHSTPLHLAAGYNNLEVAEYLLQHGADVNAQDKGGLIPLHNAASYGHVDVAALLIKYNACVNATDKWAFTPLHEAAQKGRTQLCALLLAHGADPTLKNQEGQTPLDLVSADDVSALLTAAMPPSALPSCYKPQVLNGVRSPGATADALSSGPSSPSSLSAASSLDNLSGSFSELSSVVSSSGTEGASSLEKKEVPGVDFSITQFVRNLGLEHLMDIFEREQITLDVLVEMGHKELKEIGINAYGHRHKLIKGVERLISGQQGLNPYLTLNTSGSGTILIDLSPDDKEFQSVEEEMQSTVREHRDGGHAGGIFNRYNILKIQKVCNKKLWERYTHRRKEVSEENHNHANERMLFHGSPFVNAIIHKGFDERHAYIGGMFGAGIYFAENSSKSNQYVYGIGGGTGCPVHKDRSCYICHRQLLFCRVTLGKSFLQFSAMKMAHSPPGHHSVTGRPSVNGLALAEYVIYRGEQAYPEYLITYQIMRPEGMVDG
- test: In vitro scintillation proximity assay (SPA) for TANK-2 inhibitory activity
- Assay type: biochemical
- experimental conditions: auto-poly(ADP-ribosyl)ation, Ni flash plates; 96-well results if available, otherwise 384-well; tested between 10^-5 M and 3x10^-8 M; read-out: in vitro SPA assay TANK-2 pIC50 (converted)
One threshold, 0.5 µM, splits the recorded IC50 values: lower ones are true (1), equal or higher ones are false (0).

molecule: CCc1cc2c(OC)cc(CN3CCN(c4ccccc4Cl)CC3)cc2[nH]c1=O
assigned label: false (0)

molecule: Cc1cc2ccc(CN3CCN(c4ncccn4)CC3)cc2[nH]c1=O
assigned label: false (0)

molecule: CCc1cc2ccc(CN3CCN(c4ccccc4)CC3)cc2[nH]c1=O
assigned label: false (0)

molecule: Cc1cc2ccc(C(C)N3CCN(c4ccccc4C#N)CC3)cc2[nH]c1=O (centres unmarked)
assigned label: false (0)

molecule: CCc1cc2ccc(CN3CCC(c4ccccc4)CC3)cc2[nH]c1=O
assigned label: false (0)

molecule: CCc1cc2ccc(CN3CCN(CCc4ccccc4)CC3)cc2[nH]c1=O
assigned label: false (0)

molecule: CCc1cc2ccc(CN3CCN(c4n[nH]c5ccccc45)CC3)cc2[nH]c1=O
assigned label: true (1)

molecule: CCc1cc2ccc(CCCN3CCN(c4ccc(C#N)cn4)CC3)cc2[nH]c1=O
assigned label: true (1)

molecule: Cc1cc2ccc(C(C)N3CCN(c4ccccc4Cl)CC3)cc2[nH]c1=O (centres unmarked)
assigned label: false (0)

molecule: CCc1cc2c(OC)cc(CN3CCN(c4ccccc4OC)CC3)cc2[nH]c1=O
assigned label: false (0)

molecule: CCc1cc2ccc(CNCCc3c[nH]c4ccccc34)cc2[nH]c1=O
assigned label: false (0)

molecule: CCc1cc2ccc(C(CO)N3CCN(c4ncccn4)CC3)cc2[nH]c1=O (centres unmarked)
assigned label: false (0)

molecule: CCc1cc2c(OC)cc(CN3CCN(c4ccc(C#N)cn4)CC3)cc2[nH]c1=O
assigned label: true (1)

molecule: Cc1cc2ccc(C(C)N3CCN(c4ccc(F)cc4F)CC3)cc2[nH]c1=O (centres unmarked)
assigned label: false (0)

molecule: CCc1cc2ccc(CN3CCN(c4ccc(C(F)(F)F)cn4)CC3)cc2[nH]c1=O
assigned label: true (1)

molecule: CCc1cc2ccc(C(C)NCCc3c[nH]c4ccccc34)cc2[nH]c1=O (centres unmarked)
assigned label: true (1)

molecule: Cc1cc2ccc(CN3CCN(c4ccccn4)CC3)cc2[nH]c1=O
assigned label: false (0)

molecule: Cc1cc2ccc(C(C)N3CCN(c4ncccc4C(F)(F)F)CC3)cc2[nH]c1=O (centres unmarked)
assigned label: false (0)

molecule: CCc1cc2ccc(C(C(C)C)N3CCN(c4ccc(C#N)cn4)CC3)cc2[nH]c1=O (centres unmarked)
assigned label: true (1)

molecule: CCc1cc2ccc(CN3CCN(c4ncc(C(=O)O)cn4)CC3)cc2[nH]c1=O
assigned label: true (1)

molecule: CCc1cc2ccc(C(O)CN3CCC(Cc4ccccc4)CC3)cc2[nH]c1=O (centres unmarked)
assigned label: true (1)

molecule: CCc1cc2ccc(C(CO)N3CCC(Cc4ccccc4)CC3)cc2[nH]c1=O (centres unmarked)
assigned label: false (0)

molecule: CCc1cc2ccc(CN3CCN(c4ncccn4)CC3)cc2[nH]c1=O
assigned label: true (1)

molecule: Cc1cc2ccc(C(C3CCCCC3)N3CC=C(c4ccccc4)CC3)cc2[nH]c1=O (centres unmarked)
assigned label: false (0)

molecule: Cc1cc2ccc(C(C)N3CCN(c4cccc(Cl)c4)CC3)cc2[nH]c1=O (centres unmarked)
assigned label: false (0)

molecule: CCc1cc2ccc(CN3CCN(c4cnccn4)CC3)cc2[nH]c1=O
assigned label: true (1)

molecule: COc1ccccc1N1CCN(Cc2ccc3cc(C)c(=O)[nH]c3c2)CC1
assigned label: false (0)

molecule: CCc1cc2ccc(CN3CCN(c4ccc(Cl)c(Cl)c4)CC3)cc2[nH]c1=O
assigned label: false (0)

molecule: CCOC(=O)c1cnc(N2CCN(Cc3ccc4cc(CC)c(=O)[nH]c4c3)CC2)nc1
assigned label: true (1)

molecule: CCc1cc2ccc(CN3CCN(c4ccc(OC)cc4)CC3)cc2[nH]c1=O
assigned label: false (0)

molecule: Cc1cc2ccc(C(C)N3CCN(C4CCCCC4)CC3)cc2[nH]c1=O (centres unmarked)
assigned label: false (0)

molecule: Cc1cc2ccc(C(=O)N3CCN(c4ccccc4Cl)CC3)cc2[nH]c1=O
assigned label: false (0)

molecule: Cc1cc2ccc(C(C3CCCCC3)N3CCN(c4ccccn4)CC3)cc2[nH]c1=O (centres unmarked)
assigned label: false (0)

molecule: CCc1cc2ccc(CN3Cc4ccccc4C3)cc2[nH]c1=O
assigned label: true (1)
